# TARGET DESC: HER2 receptor (Homo sapiens, UniProt P04626)
# Construct: Recombinant purified HER2 receptor composed of the ectodomain of HER2 fused to the Fc of human IgG; purchased Xcyte Therapeutics, Seattle, Wash; (provided by Dr. Che Law; a gift, not a catalogue product)
# Sequence (P04626 23-652 limits assumed): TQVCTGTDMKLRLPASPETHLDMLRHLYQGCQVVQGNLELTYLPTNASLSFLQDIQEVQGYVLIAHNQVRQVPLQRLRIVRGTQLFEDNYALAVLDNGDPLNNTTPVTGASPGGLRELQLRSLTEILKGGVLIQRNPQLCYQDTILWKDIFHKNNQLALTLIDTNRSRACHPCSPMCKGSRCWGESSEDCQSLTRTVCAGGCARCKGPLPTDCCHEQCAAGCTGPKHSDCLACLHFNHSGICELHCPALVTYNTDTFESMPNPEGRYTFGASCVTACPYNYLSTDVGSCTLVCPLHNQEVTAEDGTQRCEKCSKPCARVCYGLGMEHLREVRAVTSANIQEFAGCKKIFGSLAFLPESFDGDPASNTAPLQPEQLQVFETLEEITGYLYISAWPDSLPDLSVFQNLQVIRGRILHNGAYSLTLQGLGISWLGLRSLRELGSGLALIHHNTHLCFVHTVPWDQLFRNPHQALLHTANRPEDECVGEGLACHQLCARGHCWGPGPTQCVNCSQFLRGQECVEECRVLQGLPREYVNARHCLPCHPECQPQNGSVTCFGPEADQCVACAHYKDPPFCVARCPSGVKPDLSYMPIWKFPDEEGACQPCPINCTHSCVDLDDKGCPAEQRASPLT
# TEST METHOD NOTES: Biacore (surface plasmon resonance) binding of peptides to immobilized HER2
# ASSAY SETUP: Biacore, immobilized HER2, 25° C.; read-out: binding to HER2 koff
Positions of bridges follow the written chain, without caps; N, C: chain ends. Residues, ends and D or L forms follow the SMILES beside them.
READOUT NAME: koff
State the value with its unit after it.

Reference set, count: 4
CSCC[C@H](NC(=O)[C@H](Cc1ccc(O)cc1)NC(=O)[C@@H]1CSSC[C@H](NC(=O)[C@@H](N)Cc2ccccc2)C(=O)NCC(=O)N[C@@H](CC(=O)O)C(=O)NCC(=O)N[C@@H](Cc2ccccc2)C(=O)N[C@@H](Cc2ccc(O)cc2)C(=O)N[C@@H](C)C(=O)N1)C(=O)N[C@@H](CC(=O)O)C(=O)N[C@H](C(=O)O)C(C)C [Peptide 8] (H-FCGDGFYACYMDV-OH; disulfide 2-9; N-terminus assumed) = 0.000701 s⁻¹
CC(C)[C@H](NC(=O)[C@H](CC(=O)O)NC(=O)[C@H](CCCCN)NC(=O)[C@H](Cc1ccc(O)cc1)NC(=O)[C@@H]1CSSC[C@H](NC(=O)[C@@H](N)Cc2ccccc2)C(=O)N[C@@H](CC(=O)O)C(=O)NCC(=O)N[C@@H](Cc2ccccc2)C(=O)N[C@@H](Cc2ccc(O)cc2)C(=O)N[C@@H](C)C(=O)N1)C(=O)O [Peptide 6] (H-FCDGFYACYKDV-OH; disulfide 2-8; N-terminus assumed) = 0.00125 s⁻¹
CSCC[C@H](NC(=O)[C@H](Cc1ccc(O)cc1)NC(=O)[C@@H]1CSSC[C@H](NC(=O)[C@H](Cc2ccccc2)NC(=O)CN)C(=O)N[C@@H](CC(=O)O)C(=O)NCC(=O)N[C@@H](Cc2ccccc2)C(=O)N[C@@H](Cc2ccc(O)cc2)C(=O)N[C@@H](C)C(=O)N1)C(=O)N[C@@H](CC(=O)O)C(=O)N[C@H](C(=O)O)C(C)C [Peptide 7] (H-GFCDGFYACYMDV-OH; disulfide 3-9) = 0.000808 s⁻¹
CSCC[C@H](NC(=O)[C@@H](Cc1ccc(O)cc1)NC(=O)[C@@H]1CSSC[C@H](NC(=O)[C@H](N)Cc2ccccc2)C(=O)N[C@@H](CC(=O)O)C(=O)NCC(=O)N[C@@H](Cc2ccccc2)C(=O)N[C@@H](Cc2ccc(O)cc2)C(=O)N[C@@H](C)C(=O)N1)C(=O)N[C@@H](CC(=O)O)C(=O)N[C@H](C(N)=O)C(C)C [Peptide 4] = 0.000603 s⁻¹

Next item in the queue.
The measured koff associated with CSCC[C@H](NC(=O)[C@H](Cc1ccc(O)cc1)NC(=O)[C@@H]1CSSC[C@H](NC(=O)[C@@H](N)Cc2ccc(O)cc2)C(=O)N[C@@H](CC(=O)O)C(=O)NCC(=O)N[C@@H](Cc2ccccc2)C(=O)N[C@@H](Cc2ccc(O)cc2)C(=O)N[C@@H](C)C(=O)N1)C(=O)N[C@@H](CC(=O)O)C(=O)N[C@H](C(N)=O)C(C)C [Peptide 3] (H-YCDGFYACYMDV-NH2; disulfide 2-8; N-terminus assumed) reads 0.000294 s⁻¹
